- study-target: Calcitonin-gene-related peptide receptor, CALCRL/RAMP1 (Homo sapiens, UniProt O60894+Q16602)
- Sequence (O60894 whole entry): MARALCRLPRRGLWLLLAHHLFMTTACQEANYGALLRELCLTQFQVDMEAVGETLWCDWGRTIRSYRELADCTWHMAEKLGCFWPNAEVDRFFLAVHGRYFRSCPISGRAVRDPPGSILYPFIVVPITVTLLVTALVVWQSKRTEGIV
- Sequence (Q16602 whole entry): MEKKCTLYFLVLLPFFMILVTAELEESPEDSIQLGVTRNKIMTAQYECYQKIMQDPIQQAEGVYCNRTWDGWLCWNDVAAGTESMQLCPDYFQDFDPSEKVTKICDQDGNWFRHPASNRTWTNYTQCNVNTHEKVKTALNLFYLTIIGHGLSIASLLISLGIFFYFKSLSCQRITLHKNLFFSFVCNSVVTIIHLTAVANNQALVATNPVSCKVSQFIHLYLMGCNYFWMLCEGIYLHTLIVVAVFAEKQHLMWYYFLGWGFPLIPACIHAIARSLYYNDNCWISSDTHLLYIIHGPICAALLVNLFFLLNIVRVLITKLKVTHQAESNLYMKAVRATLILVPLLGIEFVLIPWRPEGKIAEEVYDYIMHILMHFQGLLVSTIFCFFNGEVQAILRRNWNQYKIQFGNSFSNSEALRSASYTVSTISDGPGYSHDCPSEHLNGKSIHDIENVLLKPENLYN
- assay-info: Displacement of [3H-propionyl-K24] from halphaCGRP expressed in human neuroblastoma SK-N-MC cells
- Format: cell-based
assay-metric: pKi
Remember the convention: pKi equals -log10 of concentration in molar.

Examples from the recorded data:
- COC(=O)[C@H]1[C@H](NC(=O)[C@@H](NC(=O)[C@@H](N)Cc2ccccc2)C(C)C)[C@@H]1C(=O)N[C@H](C(=O)N[C@@H](CC(=O)O)C(=O)N[C@H](C(=O)NCC(=O)N1CCC[C@H]1C(=O)N[C@@H](Cc1ccccc1)C(=O)N[C@@H](C)C(=O)N[C@@H](Cc1ccccc1)C(=O)O)C(C)C)[C@@H](C)O: 9.15
- CC(C)[C@H](NC(=O)[C@H](CC(=O)O)NC(=O)[C@@H](NC(=O)[C@@H]1C[C@@H](O)CN1C(=O)[C@@H](NC(=O)[C@@H](N)Cc1ccccc1)C(C)C)[C@@H](C)O)C(=O)NCC(=O)N1CCC[C@H]1C(=O)N[C@@H](Cc1ccccc1)C(=O)N[C@@H](C)C(=O)N[C@@H](Cc1ccccc1)C(=O)O: 11.22

Continue with the next compound.
The compound listed as CC(C)[C@H](NC(=O)[C@H](CC(=O)O)NC(=O)[C@@H](NC(=O)[C@@H]1CCCN1C(=O)[C@@H](NC(=O)[C@@H](N)Cc1ccccc1)C(C)C)[C@@H](C)O)C(=O)NCC(=O)N1CCC[C@H]1C(=O)N[C@@H](Cc1ccccc1)C(=O)N[C@@H](C)C(=O)N[C@@H](Cc1ccccc1)C(=O)O has a reported pKi of 10.70
